tgt: T1, recombinant human MASP1 active protease (amino acids 297-699, C-terminal His Tag) (human, UniProt P48740 297-699)
T1 sequence: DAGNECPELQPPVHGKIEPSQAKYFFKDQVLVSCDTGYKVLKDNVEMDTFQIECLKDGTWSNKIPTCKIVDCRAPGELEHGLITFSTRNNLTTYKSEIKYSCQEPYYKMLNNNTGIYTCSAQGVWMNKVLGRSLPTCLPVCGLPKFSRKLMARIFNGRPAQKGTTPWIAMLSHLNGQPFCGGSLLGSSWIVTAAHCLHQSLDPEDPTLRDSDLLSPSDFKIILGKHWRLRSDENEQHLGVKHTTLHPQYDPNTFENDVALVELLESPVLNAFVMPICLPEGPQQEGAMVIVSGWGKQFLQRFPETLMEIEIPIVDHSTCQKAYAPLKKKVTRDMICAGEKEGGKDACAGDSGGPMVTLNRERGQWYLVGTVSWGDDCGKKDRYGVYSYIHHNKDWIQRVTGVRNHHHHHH
assay.details: cell-based or functional assay
Numbered stars: 1 amine (or outer) side, 2 acyl side, 3 side chain; on linkers, the order of the positions; unused ones are H or OH. Bridge positions count the residues as written; N and C are the ends. Square brackets hold non-standard residues; d marks the D form. Ends that are not written are not given here. X6 = (S)‑(1-Piperidin-3-yl)‑acetic acid, O=C(C[C@@H]1CCCN([*:1])C1)[*:2]; Oic = O=C(O)[C@@H]1C[C@@H]2CCCC[C@@H]2N1; Pen = CC(C)(S)[C@H](N)C(=O)O; Sar = CNCC(=O)O
parameter.measured: human MASP1 IC50 (nM)
One number for each entry, in nM.

// human MASP1 IC50 value for [Sar]ICSRSLP[Oic]I[Pen]IP[X6]-OH (disulfide 3-11; N-terminus assumed; SMILES CC[C@H](C)[C@H](NC(=O)CNC)C(=O)N[C@H]1CSSC(C)(C)[C@@H](C(=O)N[C@H](C(=O)N2CCC[C@H]2C(=O)N2CCC[C@@H](CC(=O)O)C2)[C@@H](C)CC)NC(=O)[C@H]([C@@H](C)CC)NC(=O)[C@@H]2C[C@@H]3CCCC[C@@H]3N2C(=O)[C@@H]2CCCN2C(=O)[C@H](CC(C)C)NC(=O)[C@H](CO)NC(=O)[C@H](CCCNC(=N)N)NC(=O)[C@H](CO)NC1=O) [Example 451: ((N-Me)G)-IC+SRSLP-(Oic)-I-(Pen)+IP-((S)-(1-Piperidin-3-yl)-acetic acid)-OH] : 2.6
